Biological target: Human MET (residues 956-1390) (Homo sapiens (Human), UniProt P08581)
Sequence (P08581 956-1390): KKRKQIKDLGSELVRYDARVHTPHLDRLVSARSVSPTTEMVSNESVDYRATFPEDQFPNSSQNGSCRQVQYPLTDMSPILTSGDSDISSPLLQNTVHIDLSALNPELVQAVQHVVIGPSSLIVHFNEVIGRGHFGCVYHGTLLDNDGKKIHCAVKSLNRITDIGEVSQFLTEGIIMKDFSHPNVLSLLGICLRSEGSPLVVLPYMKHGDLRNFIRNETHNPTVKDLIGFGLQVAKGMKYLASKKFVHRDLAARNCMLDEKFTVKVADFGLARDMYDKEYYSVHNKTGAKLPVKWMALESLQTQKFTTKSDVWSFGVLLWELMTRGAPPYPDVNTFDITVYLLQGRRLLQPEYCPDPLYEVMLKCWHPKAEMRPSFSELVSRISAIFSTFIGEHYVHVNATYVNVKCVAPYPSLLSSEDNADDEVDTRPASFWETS
Experiment: Human Met kinase assay, HTRF KinEase (Example D-2)
Assay type: biochemical
Conditions: protocol of Example D-2; read-out: c-Met IC50
pIC50: −log10 of the molar value.
As shown below, each of these compounds has a reported pIC50 value.
Assay metric: pIC50

structure_smiles_string=CCc1ncc(C(=O)Nc2ccc(Oc3ccnc4cc(OC)c(OC)nc34)c(F)c2)c(O)c1-c1ccc(F)cc1 experimental_result="> 7.00"
structure_smiles_string=COc1cc2nccc(Oc3ccc(NC(=O)c4cn(CCO)c(C)c(-c5ccc(F)cc5)c4=O)cc3F)c2nc1OC experimental_result="> 7.00"
structure_smiles_string=COc1cc2nccc(Oc3ccc(NC(=O)c4cn(C)c(CF)c(-c5ccc(F)cc5)c4=O)cc3)c2nc1OC experimental_result="> 7.00"
structure_smiles_string=COc1cnc2c(Oc3ccc(NC(=O)c4cn(CCO)c(C)c(-c5ccc(F)cc5)c4=O)cc3F)ccnc2c1 experimental_result="> 7.00"
structure_smiles_string=COCc1nc(C)c(-c2ccc(F)cc2)c(O)c1C(=O)Nc1ccc(Oc2ccnc3ccc(OC)cc23)c(F)c1 experimental_result="6.52 to 7.00"
structure_smiles_string=COc1cnc2c(Oc3ccc(NC(=O)c4cn(C)c(C#N)c(-c5ccc(F)cc5)c4=O)cc3F)ccnc2c1 experimental_result="> 7.00"

From: patent US12371428B2
